Data origin, for the record: patent US20220386606A1

Field: Pre-emergence action against VIOTR in %. Provide a value for each of the molecules that follow.
# Tested on: VIOTR
# test details: Pre-emergence herbicidal action against VIOTR
# Type: in vivo, Viola tricolor
# measurement setup: 320 g/ha
Kindly answer with a numeric value in %, unit omitted.

Which measured Pre-emergence action against VIOTR in % belongs to CC#Cc1cc(C)c(C2=C(OC(=O)C(C)C)C3(CCC(COC)C3)NC2=O)c(F)c1 (centres unmarked) [Example P-57] , tested on VIOTR?
100

Which measured Pre-emergence action against VIOTR in % belongs to C#CCOCC1CCC2(C1)NC(=O)C(c1c(C)cc(C#CC)cc1Cl)=C2OC(=O)OCC (centres unmarked) [Example P-99] , tested on VIOTR?
100

Which measured Pre-emergence action against VIOTR in % belongs to CC#Cc1cc(F)c(C2=C(OC(=O)C(C)C)C3(CCC(COC)C3)NC2=O)c(OC)c1 (centres unmarked) , tested on VIOTR?
80

Which measured Pre-emergence action against VIOTR in % belongs to CC#Cc1cc(C)c(C2=C(O)C3(CCC(COCCOC)C3)NC2=O)c(Cl)c1 (centres unmarked) [Example I-50] , tested on VIOTR?
100

Which measured Pre-emergence action against VIOTR in % belongs to CC#Cc1cc(Br)c(C2=C(OC(=O)OCC)C3(CCC(COCC)C3)NC2=O)c(OCC)c1 (centres unmarked) , tested on VIOTR?
80

Which measured Pre-emergence action against VIOTR in % belongs to C=CCOCC1CCC2(C1)NC(=O)C(c1c(C)cc(C#CC)cc1Cl)=C2OC(=O)OCC (centres unmarked) [Example P-72] , tested on VIOTR?
100

Which measured Pre-emergence action against VIOTR in % belongs to CC#Cc1cc(C)c(C2=C(O)C3(CCC(COCC)C3)NC2=O)c(Cl)c1 (centres unmarked) [Example I-17] , tested on VIOTR?
100

Which measured Pre-emergence action against VIOTR in % belongs to CC#Cc1cc(C)c(C2=C(OC(=O)C(C)C)C3(CCC(COCC)C3)NC2=O)c(F)c1 (centres unmarked) [Example P-59] , tested on VIOTR?
100
